experiment: Drug metabolism in human assessed as glucuronide concentration in urine
Assign labels as follows, please: Fulfilled for Fm below 0.2; Not fulfilled for Fm equal to or exceeding 0.2.

- O=C1Nc2ccc(Cl)cc2C(c2ccccc2Cl)=NC1O (stereo not drawn) [LORAZEPAM]: Not fulfilled
- C[C@H]1COc2c(N3CCN(C)CC3)c(F)cc3c(=O)c(C(=O)O)cn1c23.Cl [LEVOFLOXACIN HYDROCHLORIDE]: Fulfilled
- O=C(c1ccc(OCCN2CCCCC2)cc1)c1c(-c2ccc(O)cc2)sc2cc(O)ccc12 [RALOXIFENE]: Not fulfilled
- Cc1ccc(C)c(OCCCC(C)(C)C(=O)O)c1 [GEMFIBROZIL]: Not fulfilled
- COc1c(C)c2c(c(O)c1C/C=C(\C)CCC(=O)O)C(=O)OC2 [MYCOPHENOLIC ACID]: Not fulfilled
- NS(=O)(=O)c1cc(C(=O)O)c(NCc2ccco2)cc1Cl [FUROSEMIDE]: Fulfilled
- CN(C)CCCN1c2ccccc2CCc2ccccc21.Cl [IMIPRAMINE HYDROCHLORIDE]: Fulfilled
- COc1ccc2c(c1)c(CC(=O)O)c(C)n2C(=O)c1ccc(Cl)cc1 [INDOMETHACIN]: Not fulfilled
